# Test system: OVCAR-3 ovarian
# assay-notes: NCI-60 one-dose screen, 48 h (100 = growth as untreated, 0 = no growth, -100 = all killed)
# measurement-setup: 10 µM unless noted
About 83,000 compounds went through this panel and 20% of them were active in at least one assay; those are over-represented in the sample as a whole.
Exercise: state measured growth for each of the compounds provided.
One number for each entry, in %.

Consider the following illustrative entries.
{"compound": "COc1ccc(-c2[nH][nH]c(=O)c2-c2nc3ccccc3s2)cc1", "reading-unit": "%", "growth": 110}
{"compound": "COc1cc(/C=C/c2cc(O)c(C(C)=O)c(O)c2)cc2c1O[C@]1(C)CC[C@@H](O)C(C)(C)[C@H]1C2", "reading-unit": "%", "growth": 61.4}
{"compound": "NS(=O)(=O)c1ccc(CCn2c(SCC(=O)c3ccc(Cl)cc3)nc3ccccc3c2=O)cc1", "reading-unit": "%", "growth": 109}
{"compound": "Cn1c(N2NC(=O)C(N=Nc3ccc(S(N)(=O)=O)cc3)C2=O)nc(-c2ccco2)c(C#N)c1=O (centres undefined)", "reading-unit": "%", "growth": 72.7}
{"compound": "CC(=O)CCC(=O)OCc1cc(=O)c(O)co1", "reading-unit": "%", "growth": 106}
{"compound": "O=C(/C=C/c1ccc(Cl)cc1)c1ccc(NC(=O)N2CCN(c3cc4c(cc3F)c(=O)c(C(=O)O)cn4C3CC3)CC2)cc1", "reading-unit": "%", "growth": 93.8}
{"compound": "N#Cc1cccc(-c2ccc3c(c2)NC(=O)/C3=C\\c2ccc[nH]2)c1", "reading-unit": "%", "growth": 30.7}
{"compound": "O=C1Nc2ccccc2/C1=C\\c1c(-c2ccc(F)cc2)nc2ccccn12", "reading-unit": "%", "growth": 62.1}

Each of the following entries comes with a recorded value; kindly state growth for each.
1. CCCC/C=N/NC(=S)NCc1ccccc1
2. COc1cc(NC(=O)CSc2nc3ccc(C)cc3c(=O)n2Cc2ccccc2)cc(OC)c1OC
3. CCOC(=O)c1cc(C(=O)c2cc(OC)cc(OC)c2)n2ccc3ccccc3c12
4. C=C1C(=O)O[C@H]2[C@H]1CC/C(CNC(=O)CCc1ccc(OC)cc1)=C\CC[C@@]1(C)O[C@@H]21

a:
104
43.8
112
30.6

# batch: return growth for each of the 2 compounds below
1. O=S(=O)(NCCCNc1nccc(-c2c(-c3cccc(O)c3)nc3occn23)n1)c1ccc(Cl)cc1
2. CNCCOc1nc2c3cnccc3cc(-c3cc(OC)c(OC)c(OC)c3)c2c2ccncc12

a:
1: 93.2; 2: 1.62
